PARP1 GST (Homo sapiens (Human)): reported IC50 for various compounds.
Sequence (P09874 whole entry): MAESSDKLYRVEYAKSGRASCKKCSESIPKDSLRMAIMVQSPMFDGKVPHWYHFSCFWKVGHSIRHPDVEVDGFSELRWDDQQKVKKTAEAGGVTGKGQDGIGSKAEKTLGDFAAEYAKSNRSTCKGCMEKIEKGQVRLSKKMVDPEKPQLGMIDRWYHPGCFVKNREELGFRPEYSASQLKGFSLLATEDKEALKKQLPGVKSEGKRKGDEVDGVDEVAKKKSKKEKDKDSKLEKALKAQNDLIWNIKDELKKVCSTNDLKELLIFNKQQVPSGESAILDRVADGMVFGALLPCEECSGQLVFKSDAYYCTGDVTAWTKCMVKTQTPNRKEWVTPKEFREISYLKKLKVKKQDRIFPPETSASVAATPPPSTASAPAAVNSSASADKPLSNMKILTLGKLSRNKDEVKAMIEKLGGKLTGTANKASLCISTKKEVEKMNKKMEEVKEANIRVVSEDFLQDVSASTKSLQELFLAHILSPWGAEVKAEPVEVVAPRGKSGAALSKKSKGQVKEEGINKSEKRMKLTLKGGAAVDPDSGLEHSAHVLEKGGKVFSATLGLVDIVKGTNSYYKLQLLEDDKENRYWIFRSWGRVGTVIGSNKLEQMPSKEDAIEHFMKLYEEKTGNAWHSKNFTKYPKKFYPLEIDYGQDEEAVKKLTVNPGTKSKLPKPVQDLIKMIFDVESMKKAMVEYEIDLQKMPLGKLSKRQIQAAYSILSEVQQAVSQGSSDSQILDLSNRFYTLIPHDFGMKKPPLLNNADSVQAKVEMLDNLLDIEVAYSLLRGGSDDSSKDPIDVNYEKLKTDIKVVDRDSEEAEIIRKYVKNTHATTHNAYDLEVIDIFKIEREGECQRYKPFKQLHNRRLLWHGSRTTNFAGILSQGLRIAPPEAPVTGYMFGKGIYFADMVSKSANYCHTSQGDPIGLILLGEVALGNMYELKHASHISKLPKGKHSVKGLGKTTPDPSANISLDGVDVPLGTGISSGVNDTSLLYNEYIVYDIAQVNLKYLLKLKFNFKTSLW
Metric name: IC50 (nM)

> print(dat)
                                smiles.input  unit.label  recorded.measurement
 1  C[C@@H]1CN(C(=O)[C@H]2C[C@H](c3c[nH]c(=O)c(C(F)(F)F)c3)C2)C[C@H](C)N1c1ncc(C(F)(F)F)cn1          nM                  3080
 2  O=c1[nH]cc([C@H]2C[C@H](C(=O)N3CCN(c4ncc(C(F)(F)F)cn4)CC3)C2)cc1C(F)(F)F          nM                  1280
 3  C[C@@H]1CN(c2ncc(C(C)(C)O)cn2)CCN1C(=O)[C@H]1C[C@@H](Cc2c[nH]c(=O)c(C(F)(F)F)c2)C1          nM                  6750
 4  C[C@H]1CN(c2ncc(C(F)(F)F)cn2)CCN1C(=O)[C@H]1C[C@@H](c2c[nH]c(=O)c(C(F)(F)F)c2)C1          nM                   283
 5  C[C@@H]1CN(C(=O)[C@H]2C[C@@H](Cc3c[nH]c(=O)c(C(F)(F)F)c3)C2)C[C@H](C)N1c1ncc(C(F)(F)F)cn1          nM                  4110
 6  C[C@@H]1CN(C(=O)[C@H]2C[C@@H](Cc3c[nH]c(=O)c(C(F)(F)F)c3)C2)C[C@H](C)N1c1ncc(C(C)(C)O)cn1          nM                  2730
 7  C[C@@H]1CN(C(=O)[C@H]2C[C@@H](c3c[nH]c(=O)c(C(F)(F)F)c3)C2)C[C@H](C)N1c1ncc(C(F)(F)F)cn1          nM                  3120
 8  CC(C)(O)c1cnc(N2CCN(C(=O)[C@H]3C[C@@H](Cc4c[nH]c(=O)c(C(F)(F)F)c4)C3)CC2)nc1          nM                   231
 9  C[C@H]1CN(C(=O)[C@H]2C[C@@H](Cc3c[nH]c(=O)c(C(F)(F)F)c3)C2)CCN1c1ncc(C(F)(F)F)cn1          nM                  1160
10  C[C@@H]1CN(C(=O)[C@H]2C[C@@H](c3c[nH]c(=O)c(C(F)(F)F)c3)C2)CCN1c1ncc(C(C)(C)O)cn1          nM                  1580
11  C[C@@H]1CN(c2ncc(C(F)(F)F)cn2)CCN1C(=O)[C@H]1C[C@@H](Cc2c[nH]c(=O)c(C(F)(F)F)c2)C1          nM                  3650
12  O=c1[nH]cc(C[C@H]2C[C@@H](C(=O)N3CCN(c4ncc(C(F)(F)F)cn4)CC3)C2)cc1C(F)(F)F          nM                   263
13  C[C@H]1CN(c2ncc(C(C)(C)O)cn2)CCN1C(=O)[C@H]1C[C@@H](Cc2c[nH]c(=O)c(C(F)(F)F)c2)C1          nM                   331
14  CC(C)(O)c1cnc(N2CCN(C(=O)[C@H]3C[C@@H](c4c[nH]c(=O)c(C(F)(F)F)c4)C3)CC2)nc1          nM                   507
15  C[C@@H]1CN(c2ncc(C(F)(F)F)cn2)C[C@H](C)N1C(=O)[C@H]1C[C@@H](Cc2c[nH]c(=O)c(C(F)(F)F)c2)C1          nM                  7380
16  C[C@@H]1CN(c2ncc(C(F)(F)F)cn2)CCN1C(=O)[C@H]1C[C@@H](c2c[nH]c(=O)c(C(F)(F)F)c2)C1          nM                  2740
17  C[C@@H]1CN(c2ncc(C(C)(C)O)cn2)CCN1C(=O)[C@H]1C[C@@H](c2c[nH]c(=O)c(C(F)(F)F)c2)C1          nM                  4360
